The measurements presented in this section are drawn from PubChem BioAssay (NCI).

# methodDescription: NCI Yeast Anticancer Drug Screen. Data for the mec2-1 strain (AID 157)
# measurementParameters: S. cerevisiae mec2-1 strain, at 50.0 µM, active compounds read high
This is part of a sample that, as a whole, favours compounds with a hit. Of some 79,000 tested, about 15% had one in any assay.
Label rule met when growth inhibition >= -20%; otherwise rule not met.

1. c1ccc(OB(Oc2ccccc2)Oc2ccccc2)cc1 = rule met
2. CCCCCCCCCCCCCCCC(O)S(=O)(=O)O (stereo unspecified) = rule not met
3. CC(=O)OC(Cc1ccc2ccccc2n1)(C(F)(F)F)C(F)(F)F = rule met
4. CC(c1ccccc1)/[N+]([O-])=C/c1ccccc1 (stereo unspecified) = rule not met
5. Cc1ccc2ccccc2[n+]1CC(=O)c1ccc([N+](=O)[O-])cc1 = rule not met
6. CC(=O)Nc1ccc2c(c1)C(=O)c1cc(Cl)ccc1-2 = rule met

---

# methodDescription: NCI Yeast Anticancer Drug Screen. Data for the mec2-1 strain (AID 157)
# measurementParameters: S. cerevisiae mec2-1 strain, at 50.0 µM, active compounds read high
This is part of a sample that, as a whole, favours compounds with a hit. Of some 79,000 tested, about 15% had one in any assay. Calls of active or inactive are those of the source. Rule as the data show it: active = growth inhibition above about 70%; inactive = the rest.
Below, each entry is listed with its recorded growth inhibition.
propertyName: growth inhibition

1. Cc1ccc(SCCSc2ccc(C)cc2)cc1 = 5.8% (inactive)
2. Cc1nc2c(sc(=S)n2-c2ccccc2)c2nc3ccccc3n12 = -15.7% (inactive)
3. O=C(O)C(Br)C(Br)C(=O)Nc1cccc(C(F)(F)F)c1 (stereo not given) = -5.55% (inactive)
4. c1ccc2c(c1)oc1cc3c(cc12)n1nnnc1c1cccn31 = -1.25% (inactive)
5. Oc1cccc2nc3cc(CN4CCOCC4)c(CN4CCOCC4)cc3nc12 = -18.4% (inactive)
6. CC(C)(N)C(=O)N[C@@H]1C(=O)N2[C@@H]1SC(C)(C)[C@@H]2C(=O)O = 3.55% (inactive)
7. COc1cc2c(cc1OC)[C@H](C)N1CCc3cc(OC)c(OC)cc3[C@@H]1C2 = -29.6% (inactive)
8. COc1ccc(C2C3=C(CCCC3=O)OC3=C2C(=O)CCC3)cc1 = 1.4% (inactive)
9. CCC1CN2CCc3cc(OC)c(OC)cc3C2CC1CC1c2cc(OC)c(OC)cc2CCN1C(=O)C1CCCN1 (stereo not given) = -1.45% (inactive)
10. CCC(=O)C12OC3OC(C)(C)OC3C1OC(C)(C)O2 (stereo not given) = 0.75% (inactive)
11. CCCC#CCN(C(C)C)C(C)C = 1.65% (inactive)
12. Fc1ccc(-c2cc(-c3cccs3)cc(-c3ccccc3)n2)cc1 = -9.45% (inactive)
13. CC1OC(OC2CCc3c(O)c4c(c(O)c3C2)C(=O)c2ccccc2C4=O)CC(N)C1O (stereo not given) = 8.9% (inactive)
14. C=CCC12CC(COc3ccccc3C(N)=O)OC1=Nc1ccccc1NC2=O (stereo not given) = 0.25% (inactive)
15. COc1ccc(-c2cc3cc(OC)c(OC)cc3c[n+]2C)cc1OC = 5.4% (inactive)
16. O=C1CCSC(=S)N1c1ccc(F)cc1 = -1.4% (inactive)
17. O=C(CN1CCOCC1)Nc1cccc(Cl)c1 = -20.1% (inactive)
18. CCN(CC)C(=S)SCCCS(=O)(=O)O = -9.95% (inactive)
19. Cn1c(=O)c2c(nc3sc4c(n32)C(=O)c2c(O)ccc(O)c2C4=O)n(C)c1=O = 30.2% (inactive)
20. O=c1oc2ccccc2c2ccccc12 = -9.55% (inactive)
21. CN(C)C=Nc1ccc([N+](=O)[O-])cc1 = -2.65% (inactive)
22. O=C(O)CCC(=O)NC(c1ccccc1)(c1ccccc1)c1ccccc1 = -9.45% (inactive)
23. COC(=O)C(=O)C(C(=O)C(=O)Nc1nc(=S)[nH][nH]1)c1nc2ccc([N+](=O)[O-])cc2[nH]c1=O (stereo not given) = 20.6% (inactive)
24. C/C(C/C(C)=N/O)=N/O = -5.85% (inactive)
25. CC/C(=N\NS(=O)(=O)c1ccc(C)cc1)c1ccc(Br)cc1 = -7.2% (inactive)
26. CCCCCCCCSC(SCCCCCCCC)=C1C(=O)N(c2ccccc2)N=C1C = -12.3% (inactive)
27. CC1S/C(=N\N=C\c2ccc(Cl)cc2)N=C1c1c(O)c2ccccc2oc1=O (stereo not given) = 52% (inactive)
28. CCC(C)CCOC(=O)c1ccc(N=Cc2ccc(C=Nc3ccc(C(=O)OCCC(C)CC)cc3)cc2)cc1 (stereo not given) = 2.7% (inactive)
29. CC(=O)OC1C(O[C@H]2CC[C@]34O[C@]35CC[C@]3(C)C(C6(C)CC[C@@H](C(C)(C)O)O6)[C@@H](O)CC3(C)[C@@H]5CC(OC3OC(CO)C(O)C(O)C3O)C4C2(C)C)OCC(O)C1O (stereo not given in full) = -21.6% (inactive)
30. Cc1cn(C2CC(N(C)O)C(CO)O2)c(=O)[nH]c1=O (stereo not given) = -27% (inactive)
31. COc1cc(C(C#N)NNC(=O)Cc2ccccc2)cc(OC)c1OC (stereo not given) = -54.1% (inactive)
32. CN1CCN(S(=O)(=O)C(c2ccccc2)C2(O)CCCCC2)CC1 (stereo not given) = 10.2% (inactive)
33. C=Cc1ccc(S(N)(=O)=O)cc1 = 15.4% (inactive)
34. CCCCCCNC(C)=O = 5.7% (inactive)
35. CC(C)CC(=O)Cc1nc2n(c1O)C(=N)N=N2 = -15.9% (inactive)
36. O=C1CC(Cc2n[nH]c3c2CCC3)CC(=O)N1 = 2.65% (inactive)
37. CC(/C=C1\N=C(c2ccccc2)OC1=O)=C\c1ccccc1 = -22.1% (inactive)
38. C[C@]12C(=O)C=CCC1=CC[C@@H]1[C@@H]2[C@H]2CC3(O)C(=O)O[C@@]4(C)[C@H]5C[C@@]6(C)[C@@H]7[C@@]2(O)[C@]1(OC[C@H]6C(=O)O5)O[C@]734 (stereo not given in full) = 16.3% (inactive)
39. CC(=C\C=N\N(C)c1ccccc1)/C=C1\Cc2ccccc2C1=O = 2.2% (inactive)
40. C=CCOC(=O)C1CC(C)=CC(C)C1C (stereo not given) = 3.6% (inactive)
41. CC1(C)CC(C)(O)N(CCc2ccccc2)C(=S)N1 (stereo not given) = 2.7% (inactive)
42. Cc1cccc(Cl)c1N=Nc1c(C)nc(N)nc1-c1ccccc1 = 15.8% (inactive)
43. OCCSCCCSCCO = -4.8% (inactive)
44. COc1ccc(CC(=O)NC(N)=O)cc1 = 2.7% (inactive)
45. CC1(C)CCCCCCC2CC2CCCCCC(C)(C)C1=O (stereo not given) = -6.15% (inactive)

---

Below, each entry is listed with its recorded growth inhibition.
# methodDescription: NCI Yeast Anticancer Drug Screen. Data for the cln2 rad14 strain (AID 165);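 also: 0% = growth equal to vehicle treated cultures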
# measurementParameters: S. cerevisiae cln2 rad14 strain, at 50.0 µM, active compounds read high
# Description: Growth inhibition of yeast strains with defined genetic alterations is measured as a screen for potential anti-cancer activity. Selected strains with alterations in DNA damage repair or cell cycle control were exposed to compounds and growth inhibition was measured relative to vehicle treated controls. The strain used in this assay is cln2 rad14
The panel holds about 79,000 compounds, 15% with a hit somewhere; the sample as a whole holds those more often.
propertyName: growth inhibition (%)

1. O=C(O)c1cccc(C(=O)O)c1C(=O)O.[NH-]C1CCCCC1[NH-].[Pt+2] = 22.1
2. COC(=O)C1(C(=O)OC)OC(c2ccc(OC)cc2)[C@H]2C(=O)N(C)C(=O)[C@H]21 (stereo partly drawn) = -8.7
3. CC(=O)c1ccc(OCc2ccccc2)c(OCc2ccccc2)c1 = 10.9
4. O=C(Cc1ccccc1)OCC(=O)c1ccc(-c2ccccc2)cc1 = 39.8
5. Cc1cccc(C)c1-n1c(C)nc2[nH]cc(C)c2c1=N = 5.1
6. Oc1ccc2ccccc2c1/C=N\Sc1ccc(Br)cc1 = 28.5
7. CN(Cc1cnc2nc(N)nc(N)c2n1)c1ccc(C(=O)NC(CCC(=O)OC(C)(C)C)C(=O)O)cc1 (stereo not drawn) = -20.1
8. CCCn1c(C)nc2c(N)cc(C)cc21 = -44.5
9. OC(c1ccccc1)(c1ccccc1)C(O)(c1ccccc1)c1ccccc1 = -16.2
10. CC1=NN(C(=O)CC(=O)Nc2cccc(C)c2)C(=O)C1N=Nc1ccc(C(=O)O)cc1 (stereo not drawn) = -11.7
11. Cc1cc(=O)c2ccccc2n1CCCCCCCCCCn1c(C)cc(=O)c2ccccc21 = -21.9
12. COc1ccc(C2OC3=C(Nc4ccc([N+](=O)[O-])cc4N3)C2=O)cc1 (stereo not drawn) = -5.35
13. Cc1cccc(C)c1NC(=O)C(=O)CC(=O)/C=C/c1ccccc1 = 3.05
14. CCCCC(CC)CN(CCOC(=O)c1cc2ccccc2oc1=O)CC(CC)CCCC (stereo not drawn) = 55
15. CC(NC(=O)C(CSCc1ccccc1)NC(=O)OCc1ccccc1)C(=O)OCc1ccccc1 (stereo not drawn) = 24.4
16. NNC(=O)C(=O)N/N=C1\CCC(=O)CC1C(=O)CCC(=O)Nc1ccc(Cl)cc1 (stereo not drawn) = -9.35
17. O=C1c2ccccc2C(=CC=C2c3ccccc3Sc3ccccc32)c2ccccc21 = 9.55
18. NCCN1CCCCCc2ccccc21 = -17.4
19. O=C(O)c1cccn1-c1ccccc1 = -21.1
20. C=C(Cl)C(Cl)(CBr)CCC(Br)C(C)(C)Cl (stereo not drawn) = 22.4
21. CC1C(O)=C(O)c2ccccc2N1O (stereo not drawn) = 12.5
22. Cc1nc(C(F)(F)F)cc(=O)[nH]1 = -1.25
23. COc1ccc2c(c1)nc1n2C(N)=Nc2ccccc2S1 = 19.9
